So I've got a bunch of compounds here, and I need their inhibition in vivo at 10 mg/kg values.
system: Cavia porcellus; assay: Inhibition of leukotriene D4 induced bronchoconstriction in anesthetized guinea pigs after intravenous administration at a dose of 10 mg/kg; assay type: functional
Numbers only, in %.

compound: CCCc1c(OCCCSc2ccc([C@@H](O)[C@H](C)CC(=O)O)cc2)ccc(C(C)=O)c1O
inhibition in vivo at 10 mg/kg, %: 72
//
compound: CCCc1c(O)c(C(C)=O)cc(Cl)c1OCCCCCOc1cc2c(cc1C(C)=O)CCC(C(=O)O)O2 (stereo not drawn)
inhibition in vivo at 10 mg/kg, %: 11

Let us move to another entry and its inhibition in vivo at 10 mg/kg.
// lookup inhibition in vivo at 10 mg/kg for CCCc1c(OCCCCCOc2cc3c(cc2C(C)=O)CCC(CCC)(C(=O)O)O3)ccc(C(C)=O)c1O (stereo not drawn)
56

====

system: Cavia porcellus; test: Inhibition of leukotriene D4 induced bronchoconstriction in anesthetized guinea pigs after intravenous administration; type: functional; details: read-out: ID50 (the source's name)
So I've got a bunch of molecules here, and I need their ED50 values.
Give bare numbers, in mg/kg.

Some molecules with known ED50 results, for comparison:
molecule: CC(=O)c1ccc(OCCCCCOc2cc3c(cc2C(C)=O)CCC(C(=O)O)O3)cc1O (stereo not drawn)
ED50 [mg/kg]: 5
--
molecule: CCCc1c(OCCCCCOc2cc3c(cc2C(C)=O)CCC(C(=O)O)O3)ccc(C(C)=O)c1O (stereo not drawn)
ED50 [mg/kg]: 5

// lookup ED50 for CCCc1c(OCCCCCCOc2cc3c(cc2C(C)=O)CCC(C(=O)O)O3)ccc(C(C)=O)c1O (stereo not drawn)
5

====

system: Cavia porcellus; test: Inhibition of leukotriene D4 induced bronchoconstriction in anesthetized guinea pigs after aerosol administration as 1% solution; format: functional
Note: every record was labeled by where its Inhibition sits among low end: < 20%; middle: ≥ 20% and < 50%; high end: ≥ 50%

Solved cases below.
molecule: CCCc1c(OCCCCCOc2cc3c(cc2C(C)=O)CCC(CCC(=O)O)O3)ccc(C(C)=O)c1O (stereo not drawn)
class_assignment: middle
--
molecule: CCCc1c(OCCCCCCCOc2cc3c(cc2C(C)=O)CCC(C(=O)O)O3)ccc(C(C)=O)c1O (stereo not drawn)
class_assignment: middle
--
molecule: CCCc1c(OCCCCc2nnn[nH]2)ccc(C(C)=O)c1O
class_assignment: high end
--
molecule: CCCc1c(OCCC(C)(C)CCOc2cc3c(cc2C(C)=O)CCC(C(=O)O)O3)ccc(C(C)=O)c1O (stereo not drawn)
class_assignment: middle
--
molecule: CCCc1c(OCCOCCOc2cc3c(cc2C(C)=O)CCC(C(=O)O)O3)ccc(C(C)=O)c1O (stereo not drawn)
class_assignment: middle
--
molecule: CCCc1c(OCCCCCOc2cc3c(cc2Br)CCC(C(=O)O)O3)ccc(C(C)=O)c1O (stereo not drawn)
class_assignment: low end

Lab note: which band did CCCc1c(OCCCCCOc2cc3c(cc2C(C)=O)CCC(C(=O)NS(=O)(=O)c2ccccc2)O3)ccc(C(C)=O)c1O (stereo not drawn) land in?
high end

Now the same for CCCc1c(OCCCCCOc2cc3c(cc2C(C)=O)CCC(C(=O)O)O3)ccc(C(C)=O)c1O (stereo not drawn)
high end

Now the same for CCCc1c(OCc2ccccc2CCOc2cc3c(cc2C(C)=O)CCC(C(=O)O)O3)ccc(C(C)=O)c1O (stereo not drawn)
low end

Now the same for CC(=O)c1ccc(OCCCCCOc2cc3c(cc2C(C)=O)CCC(C(=O)O)O3)cc1O (stereo not drawn)
low end

Now the same for "CCCc1c(OCCCS(=O)(=O)c2ccc(C(=O)CCC(=O)O)cc2)ccc(C(C)=O)c1O"
high end

Now the same for CCCc1c(OCCCOc2cc3c(cc2C(C)=O)CCC(C(=O)O)O3)ccc(C(C)=O)c1O (stereo not drawn)
middle

====

system: Cavia porcellus; assay: Inhibition of leukotriene D4 induced bronchoconstriction in anesthetized guinea pigs after aerosol administration as 1% solution; type: functional
So I've got a bunch of compounds here, and I need their Inhibition values.
Answers are plain numbers, in %.

Some compounds with known Inhibition results, for comparison:
compound: CCCc1c(OCCCCCOc2cc3c(cc2C(C)=O)CCC(CCC)(C(=O)O)O3)ccc(C(C)=O)c1O (stereo unspecified)
assayed_system: Cavia porcellus
unit_text: %
endpoint_value: 51
--
compound: CCCc1c(OCCCCCOc2ccc3c(c2)OC(C(=O)O)CC3)ccc(C(C)=O)c1O (stereo unspecified)
assayed_system: Cavia porcellus
unit_text: %
endpoint_value: 50
--
compound: CCCc1c(OCCCCCOc2cc3c(cc2Cl)CCC(C(=O)O)O3)ccc(C(C)=O)c1O (stereo unspecified)
assayed_system: Cavia porcellus
unit_text: %
endpoint_value: 0
--
compound: CCCc1c(OCCCCCOc2cc3c(cc2C(=O)CC)CCC(C(=O)O)O3)ccc(C(C)=O)c1O (stereo unspecified)
assayed_system: Cavia porcellus
unit_text: %
endpoint_value: 60
--
compound: CCCc1c(O)c(C(C)=O)cc(Cl)c1OCCCCCOc1cc2c(cc1C(C)=O)CCC(C(=O)O)O2 (stereo unspecified)
assayed_system: Cavia porcellus
unit_text: %
endpoint_value: 10

Let us move to another entry and its Inhibition.
// lookup Inhibition for CCCc1c(OCc2cccc(COc3cc4c(cc3C(C)=O)CCC(C(=O)O)O4)c2)ccc(C(C)=O)c1O (stereo unspecified)
28
